Molecular target: Man(a1-3)[Man(a1-6)]Man(a1-6)[Man(a1-3)]Man(b1-4)GlcNAc(b1-4)GlcNAc
Experiment: glycan array binding signal (z-score within array); higher = stronger binding
Details: glycan notation: IUPAC condensed, linker removed
The sample as a whole holds a higher share of the strongest signals than the screen did.
Rule: 1 for glycan array binding signal (z-score) not less than 3, -1 for anything less.

Prompt: Form field: glycan array binding signal (z-score) at least 3? Entry: PP2A1 (Arabidopsis thaliana) (protein) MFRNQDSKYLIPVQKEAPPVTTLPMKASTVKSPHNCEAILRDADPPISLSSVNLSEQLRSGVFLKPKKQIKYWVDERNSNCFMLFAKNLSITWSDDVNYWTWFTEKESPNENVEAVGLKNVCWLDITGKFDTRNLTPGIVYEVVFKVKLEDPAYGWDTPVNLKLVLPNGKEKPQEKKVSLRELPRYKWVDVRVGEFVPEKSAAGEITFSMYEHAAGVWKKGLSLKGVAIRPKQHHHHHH
Response: 1

Prompt: Identify whether the reported glycan array binding signal (z-score) of the following binder is 3 or greater: MVL (Microcystis viridis), Q9RHG4 (protein) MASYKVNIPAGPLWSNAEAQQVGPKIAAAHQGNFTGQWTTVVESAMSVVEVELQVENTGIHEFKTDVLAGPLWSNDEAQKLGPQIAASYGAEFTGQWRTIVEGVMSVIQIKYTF
Response: -1

Prompt: Quick check, glycan array binding signal (z-score) >= 3? Adiponectin (Rattus norvegicus), Q8K3R4 (protein) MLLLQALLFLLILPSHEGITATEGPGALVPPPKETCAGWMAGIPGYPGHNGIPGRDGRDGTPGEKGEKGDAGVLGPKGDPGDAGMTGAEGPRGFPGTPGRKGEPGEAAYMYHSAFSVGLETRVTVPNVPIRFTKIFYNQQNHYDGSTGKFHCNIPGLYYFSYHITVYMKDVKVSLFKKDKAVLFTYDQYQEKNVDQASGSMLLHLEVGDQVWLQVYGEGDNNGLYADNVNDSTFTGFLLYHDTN
Response: -1

Prompt: Check if glycan array binding signal (z-score) >= 3 (inclusive). Item: MAL-II (Maackia amurensis), P93248 (protein) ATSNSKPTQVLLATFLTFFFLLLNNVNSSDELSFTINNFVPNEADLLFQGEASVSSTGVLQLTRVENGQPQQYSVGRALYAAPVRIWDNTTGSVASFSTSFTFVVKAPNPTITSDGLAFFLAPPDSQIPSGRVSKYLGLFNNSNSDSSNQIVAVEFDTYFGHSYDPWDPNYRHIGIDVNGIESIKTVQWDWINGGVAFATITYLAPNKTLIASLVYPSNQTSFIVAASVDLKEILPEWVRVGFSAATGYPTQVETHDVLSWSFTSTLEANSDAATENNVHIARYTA
Response: -1

Prompt: Decide: glycan array binding signal (z-score) of GNL (Galanthus nivalis) (protein) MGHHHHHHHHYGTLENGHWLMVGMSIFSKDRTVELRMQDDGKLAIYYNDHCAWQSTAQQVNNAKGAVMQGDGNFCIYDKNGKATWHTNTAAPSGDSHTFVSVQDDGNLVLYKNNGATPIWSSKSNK >= 3?
Response: -1

Prompt: Is it the case that MXA PilAct-eGFP (Myxococcus xanthus), Q59589 (protein) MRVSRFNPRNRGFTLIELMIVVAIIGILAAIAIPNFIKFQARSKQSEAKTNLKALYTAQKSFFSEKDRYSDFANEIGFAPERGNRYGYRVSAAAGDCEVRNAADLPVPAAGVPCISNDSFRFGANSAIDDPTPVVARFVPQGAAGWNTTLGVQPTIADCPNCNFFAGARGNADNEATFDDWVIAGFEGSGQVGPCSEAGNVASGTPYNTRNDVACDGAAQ has glycan array binding signal (z-score) reaching or exceeding 3?
Response: -1

Prompt: Please tell me: is the binder SalT (Orysata sativa) (protein) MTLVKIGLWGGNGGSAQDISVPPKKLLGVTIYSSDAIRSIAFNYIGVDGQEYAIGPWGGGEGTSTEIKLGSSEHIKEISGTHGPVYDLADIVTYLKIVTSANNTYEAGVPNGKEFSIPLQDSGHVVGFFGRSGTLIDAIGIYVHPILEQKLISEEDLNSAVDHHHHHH at or over 3 in terms of glycan array binding signal (z-score)?
Response: 1

Prompt: Reported glycan array binding signal (z-score) at or above 3? EULS2 M2 (Oryza sativa) (protein) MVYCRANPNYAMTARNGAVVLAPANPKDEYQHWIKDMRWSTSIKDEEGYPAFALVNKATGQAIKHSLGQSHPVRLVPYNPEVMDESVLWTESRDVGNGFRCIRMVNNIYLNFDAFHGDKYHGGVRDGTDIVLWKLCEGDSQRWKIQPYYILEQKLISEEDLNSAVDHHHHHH
Response: 1

Prompt: Item Thrombomodulin (Mus musculus) (protein) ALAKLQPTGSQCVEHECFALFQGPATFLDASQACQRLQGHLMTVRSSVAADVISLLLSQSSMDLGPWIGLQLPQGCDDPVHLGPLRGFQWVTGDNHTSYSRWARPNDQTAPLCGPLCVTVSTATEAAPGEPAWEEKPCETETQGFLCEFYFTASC with glycan array binding signal (z-score) of 3 or above?
Response: -1

Prompt: Assess whether reported glycan array binding signal (z-score) for ECA (Erythrina cristagalli), P83410 (protein) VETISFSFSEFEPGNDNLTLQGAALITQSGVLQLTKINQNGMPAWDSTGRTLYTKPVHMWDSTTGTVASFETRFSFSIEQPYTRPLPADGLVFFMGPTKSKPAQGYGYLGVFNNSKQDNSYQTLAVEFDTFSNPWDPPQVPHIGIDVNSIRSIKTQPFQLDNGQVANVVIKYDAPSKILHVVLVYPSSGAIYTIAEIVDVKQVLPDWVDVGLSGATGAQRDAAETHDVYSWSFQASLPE sits at 3 or higher.
Response: -1

Prompt: Decide: glycan array binding signal (z-score) of Crocus Lectin (Crocus vernus), Q9FVA1 (protein) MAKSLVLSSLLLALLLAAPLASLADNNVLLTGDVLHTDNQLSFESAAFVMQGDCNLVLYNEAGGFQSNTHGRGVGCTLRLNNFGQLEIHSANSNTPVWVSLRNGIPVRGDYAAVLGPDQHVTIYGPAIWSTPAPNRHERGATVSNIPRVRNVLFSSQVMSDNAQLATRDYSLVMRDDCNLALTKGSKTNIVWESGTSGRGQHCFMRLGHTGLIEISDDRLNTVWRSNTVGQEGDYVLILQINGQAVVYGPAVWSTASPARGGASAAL >= 3?
Response: 1
